Source listed as paper PMC12040169.

Assay: in vitro
Details: human, hela cells, % viability
# viability at 28.5 h, 10 µM per entry

>  <molecule>
Cc1cc(OCC(=O)O)c(C)c2c1CC[C@@H]([C@H](C)C(=O)N1CCC(O)CC1)C2 [CBK289433]

>  <viability at 28.5 h, 10 µM / %>
78.7

$$$$
>  <molecule>
Cc1cc(C)nc(SCCN2CCOCC2)n1 [CBK261769C]

>  <viability at 28.5 h, 10 µM / %>
93.8

$$$$
>  <molecule>
CC(C)c1nn(CN(C)Cc2ccccc2)c(=S)[nH]1 [CBK295166]

>  <viability at 28.5 h, 10 µM / %>
102

$$$$
>  <molecule>
CC(=O)Nc1ccc(CCOc2nccnc2-c2ccc(C)cc2C)cc1 [CBK106985]

>  <viability at 28.5 h, 10 µM / %>
96.7

$$$$
>  <molecule>
Cc1ccccc1-n1nc(-c2ccc(NC(=O)c3ccccc3)cc2)cc1NC(=O)c1ccccc1 [CBK261264]

>  <viability at 28.5 h, 10 µM / %>
82.2

$$$$
>  <molecule>
CSc1ncc(Cl)c(C(=O)Nc2nc(-c3ccc(S(=O)(=O)N4CCCCCC4)cc3)cs2)n1 [CBK268785]

>  <viability at 28.5 h, 10 µM / %>
96.5

$$$$
>  <molecule>
Cc1cc(C)c(C)c(C(=O)COC(=O)c2cc(O)nc3ccccc23)c1C [CBK264066]

>  <viability at 28.5 h, 10 µM / %>
94.8

$$$$
>  <molecule>
OC(COCc1ccccc1)CN1CCN(c2ccccc2F)CC1 (stereo not shown) [CBK074851C]

>  <viability at 28.5 h, 10 µM / %>
92.6

$$$$
>  <molecule>
O=C(O)CNC(=O)CCn1c(-c2ccccc2)cc2ccccc21 [CBK286780]

>  <viability at 28.5 h, 10 µM / %>
99.2

$$$$
>  <molecule>
C=C(C)Cn1c(SCC(C)C)nnc1-c1ccccc1F [CBK200077]

>  <viability at 28.5 h, 10 µM / %>
107

$$$$
>  <molecule>
O=C(CNS(=O)(=O)c1ccc(Br)cc1)N1CCOCC1 [CBK034469]

>  <viability at 28.5 h, 10 µM / %>
96

$$$$
>  <molecule>
Fc1ccccc1COc1cccc(CNCc2ccccn2)c1 [CBK268552C]

>  <viability at 28.5 h, 10 µM / %>
101

$$$$
>  <molecule>
Cc1nn([C@H]2C[C@@H](O)[C@@H](CO)O2)c(=O)[nH]c1=O [CBK201185]

>  <viability at 28.5 h, 10 µM / %>
97.3

$$$$
